Provenance of the data: patent US20220340582A1

Would you mind telling me the reported IC50 of each entry?
- target.or.test.system: human CB1 receptor (Homo sapiens, UniProt P21554)
- Construct: host or cells: CHO-K1
- Sequence (P21554 whole entry): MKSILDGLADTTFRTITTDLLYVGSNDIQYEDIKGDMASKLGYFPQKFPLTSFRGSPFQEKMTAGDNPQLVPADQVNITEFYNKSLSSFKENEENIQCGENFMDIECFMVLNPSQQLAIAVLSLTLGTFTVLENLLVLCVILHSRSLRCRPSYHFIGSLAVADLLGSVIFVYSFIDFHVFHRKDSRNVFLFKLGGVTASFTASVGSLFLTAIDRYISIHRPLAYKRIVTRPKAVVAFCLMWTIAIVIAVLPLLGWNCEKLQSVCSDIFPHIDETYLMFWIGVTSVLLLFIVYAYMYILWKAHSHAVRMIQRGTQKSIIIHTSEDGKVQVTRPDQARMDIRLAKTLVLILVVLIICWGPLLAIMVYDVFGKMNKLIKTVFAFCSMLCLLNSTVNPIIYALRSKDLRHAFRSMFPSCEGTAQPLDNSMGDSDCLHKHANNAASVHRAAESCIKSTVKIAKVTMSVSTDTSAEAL
- measurement.description: CB1 radioligand competitive binding assay ([3H]CP 55,940 displacement)
- condition.details: 0.8 nM [3H]CP 55,940, CHO-K1 membranes expressing human CB1 receptor, dose-response; read-out: CB1 IC50

Which IC50 is listed for CCCCCc1cc2c(c(O)c1C(=O)Nc1ccccc1)[C@@H]1C=C(C)CC[C@H]1C(C)(C)O2 [Compound 10b] ?
< 100 nM

Which IC50 is listed for CCCCCc1cc2c(c(O)c1C(=O)NCc1cccnc1)[C@@H]1C=C(C)CC[C@H]1C(C)(C)O2 [Compound 15b] ?
> 1000 nM
